target: Nuclear receptor subfamily 1 group I member 2 (Homo sapiens); test: Human pregnane X receptor (PXR) small molecule agonists, qHTS assay (AID 1346982); conditions: PXR-Luc HepG2, CYP3A4 luciferase reporter, 24 h; series mostly up to 92.4 µM; also: nearly all actives have a fitted effect of over 35% in size
Records with an inconclusive call do not appear. Activity calls are given as the source filed them. Calls follow the shape of the dose curve; as a rule, active = well fitted activation curve with a large enough effect in the repeat runs; inconclusive = weak or mixed curves; inactive = no such curve, though single readings can be large or run the other way.
Permitted responses: true for active, false for inactive

Recorded results for 6 compounds are shown here.
COMPOUND	ASSIGNED CLASS
CCCCCCCCCCOC(=O)c1ccccc1C(=O)OCCCCCCCCCC	false
C=CC(=O)OC(C)(C)C	false
CCC(Cl)CCl (centres undefined)	false
CC[C@H]1C[C@H]2[C@@H]3CCC4=CC(=O)CC[C@@H]4[C@H]3CC[C@]2(C)[C@H]1O	true
COP(=S)(OC)Oc1cc(Cl)c(I)cc1Cl	false
C/C(=C\c1ccccc1)[N+](=O)[O-]	true

Inquiry: Recorded test call requested for COC(C)(C)CCC[C@H](C)C/C=C/C(C)=C/C(=O)OC(C)C
Reply text: true

Inquiry: Recorded test call requested for S=C=NCc1ccccc1
Reply text: true

Inquiry: Recorded test call requested for c1ccc(CN2CCNCC2)cc1
Reply text: false

Inquiry: Recorded test call requested for Nc1nc(N)nc(N)n1
Reply text: false

Inquiry: Recorded test call requested for COc1nn(CSP(=S)(OC)OC)c(=O)s1
Reply text: true

Inquiry: Recorded test call requested for CCCCC(O)(Cn1cncn1)c1ccc(Cl)cc1Cl (centres undefined)
Reply text: true

Inquiry: Recorded test call requested for CC(=O)NC1CCSC1=O (centres undefined)
Reply text: false

Inquiry: Recorded test call requested for COc1nn(C(=O)NS(=O)(=O)c2ccccc2OC(F)(F)F)c(=O)n1C
Reply text: false

The reported numbers originate from PubChem BioAssay (Tox21).
